Data origin: patent US9133167B2

- Tested on: Mycobacterium smegmatis (ATCC607)
- assay-info: In-vitro anti-bacterial activity against strain M. smegmatis ATCC607 (Alamar Blue growth inhibition)
- Type: cell-based
- experimental-parameters: 90% inhibitory concentration for bacterial growth, 48 hours at 37° C.
metric-name: IC90 (μg/ml) MSM 607 (µg/mL)

INSERT INTO assay_data (compound, u, result_operator, meas_value) VALUES
  ('COc1nc2ccc(S(C)(=O)=O)cc2cc1C(c1ccccc1)C1(O)CCNCC1.O=C(O)/C=C/C(=O)O (racemic) [Compound 99]', 'µg/mL', '>', 13.31),
  ('COc1nc2ccc(C(=O)N(C)C)cc2cc1C(c1ccc(Cl)cc1)C1(O)CCN(Cc2ccccc2)CC1 (stereo not drawn) [Compound 108]', 'µg/mL', '>', 13.67),
  ('COc1nc2ccc(Br)cc2cc1C(c1cccc(C)c1)C1(O)CCN(Cc2ccccc2)CC1 (stereo not drawn) [Compound 61]', 'µg/mL', '=', 3.16),
  ('CCn1c(=O)c(C(c2ccc(Cl)cc2)C2(O)CCNCC2)cc2cc(Br)ccc21.O=C(O)/C=C/C(=O)O (stereo not drawn) [Compound 102]', 'µg/mL', '=', 11.58),
  ('COc1nc2ccc(Br)cc2cc1C(c1ccc(Cl)cc1)C1(O)CCN(Cc2cccc(C#N)c2)CC1.O=C(O)/C=C/C(=O)O (racemic) [Compound 105]', 'µg/mL', '=', 14.49),
  ('COc1nc2ccc(Cl)cc2cc1C(c1ccc(Br)cc1)C1(O)CCN(Cc2ccccc2)CC1 (stereo not drawn) [Compound 88]', 'µg/mL', '=', 3.16),
  ('COc1nc2ccc(-c3cccnc3)cc2cc1C(c1ccccc1Cl)C1(O)CCNCC1.O=C(O)/C=C/C(=O)O (racemic) [Compound 97]', 'µg/mL', '=', 4.08),
  ('COc1nc2ccc(C(N)=O)cc2cc1C(c1ccc(Cl)cc1)C1(O)CCN(Cc2ccccc2)CC1 (stereo not drawn) [Compound 107]', 'µg/mL', '=', 12.96),
  ('Cn1c(=O)c(C(c2ccc(Cl)cc2)C2(O)CCN(Cc3ccccc3)CC2)cc2cc(Br)ccc21 (stereo not drawn) [Compound 96]', 'µg/mL', '=', 6.19),
  ('Cl.O=c1[nH]c2ccc(Br)cc2cc1C(c1cccc(Cl)c1)C1(O)CCNCC1 (stereo not drawn) [Compound 101]', 'µg/mL', '=', 12.04),
  ('COc1nc2ccc(Br)cc2cc1C(c1cccc(Cl)c1)C1(O)CCNCC1.O=C(O)/C=C/C(=O)O (racemic) [Compound 98]', 'µg/mL', '=', 7.83),
  ('Cl.N#Cc1ccc(C(c2cc3cc(Br)ccc3[nH]c2=O)C2(O)CCNCC2)cc1 (stereo not drawn) [Compound 103]', 'µg/mL', '>', 11.93);
